Source listed as patent US20220306762A1.

MEASURED_ON: T1, His-tagged cynomolgus monkey CD38 (ACRO Biosystems, CD8-05223 [sic]) (cynomolgus monkey, UniProt Q5VAN0 43-301)
T1 construct: bought protein; used for ELISA coating and as SPR analyte; not shown: His tag
EXPERIMENT: SPR (second run), His-tagged CD38
pKd: −log10 of the molar value.
pKd reference

BINDER	pKd
40617p1.2.A1 (scFv, V domains shown) VH: EVQLLESGGGLVQPGGSLRLSCAASGFTFSSYWMTWVRQAPGKGLEWVSAISSYGGQYTYYADSVKGRFTISRDNSKDTLYLHMDSLRAEDTAVYYCAKDWDDGMDVWGQGTTVTVSS VL: EIVMTQSPAVLSVSPGERATLSCRASQSVNIKLAWYQQKPGQAPRLLIYGASTRAAGIPDRFSGSGSGTDFTLTISSLQSDDFAVYYCQQYYDLPPYSFGGGTKVEIK	6.99
40769p1.1.H1 (scFv, V domains shown) VH: EVQLLESGGGLVQPGGSLRLSCAASGFTFSDYWMNWVRQAPGKGLEWVSTISSGGSMIYHADSVKGRFTISRDNSKNTLYLQMNSLRPEDTAVYYCAKDNWNDYYGMDVWGQGTTVTVSS VL: QSVLTQPPSASGTPGQRVNISCSGSSSNIRYNYVYWYQQVPGTAPKLLIYKDDQRPSGVPDRFSGSKSGTSASLAISELQSEDEADYYCATWDGSLNARVFGGGTKLTVL	7.22
40769p1.2.E3 (scFv, V domains shown) VH: EVQLLESGGDLVQPGGSLRLSCGASGFTFSDHYMSWVRQAPGKGLEWVADISARGSNTWYADSVKGRFTISRDNSENTLYLQMNSLRAEDTAVYYCAKNWNYNYGMDVWGQGTTVTVSS VL: QSVLTQAPSASGTPGQRVTISCSGSSIQNNYVSWYQQLPGTAPKLLIYRNFERPSGVPDRFSASKSGTSASLAISGLQSEDEADYYCASWDDSLNWVFGGGTKLTVL	8.31
